Origin of measurements: patent US20120202801A1

Catalogue of EC50 readings, one per entry.
Test system: hypoxia-inducible endogenous VEGF expression
test-name: Hypoxia-inducible endogenous VEGF expression ELISA in HeLa cells, dose-response (EC50, Table 3)
cond: Homo sapiens, read-out: ELISA EC50 μM

Field: example entries. Status: answers known.
COCCN(C)CC(O)COc1ccc(C2c3[nH]c4ccc(Cl)cc4c3CCN2C(=O)Oc2ccc(Cl)cc2)cc1 (stereo not shown) = 0.008 to 0.04 µM
O=C(Oc1ccc(Cl)cc1)N1CCc2c([nH]c3ccc(Cl)cc23)C1c1ccc(OCCCCCCNCCO)cc1 (stereo not shown) = < 0.008 µM
O=C(Oc1ccc(F)cc1)N1CCc2c([nH]c3ccc(Cl)cc23)C1c1ccc(OCCCCCCN2CCCCC2)cc1 (stereo not shown) = < 0.008 µM
CN(C)CCCOc1ccc(C2c3[nH]c4ccc(Cl)cc4c3CCN2C(=O)Oc2ccccc2)cc1 (stereo not shown) = 0.04 to 0.2 µM
CN1CCN(CCCOc2ccc(C3c4[nH]c5ccc(Cl)cc5c4CCN3C(=O)Oc3ccc(F)cc3)cc2)CC1 (stereo not shown) = < 0.008 µM

// query EC50 value for entry COCCN(C)CCCOc1ccc(C2c3[nH]c4ccc(Cl)cc4c3CCN2C(=O)Oc2ccc(Cl)cc2)cc1 (stereo not shown)
< 0.008 µM

// query EC50 value for entry CN1CCN(CCCCCCOc2ccc(C3c4[nH]c5ccc(Cl)cc5c4CCN3C(=O)Oc3ccc(F)cc3)cc2)CC1 (stereo not shown)
< 0.008 µM

// query EC50 value for entry O=C(Oc1ccc(F)cc1)N1CCc2c([nH]c3ccc(Cl)cc23)C1c1ccc(OCCCCNCCCn2ccnc2)cc1 (stereo not shown)
0.04 to 0.2 µM

// query EC50 value for entry CN1CCCC(COc2ccc(C3c4[nH]c5ccc(Cl)cc5c4CCN3C(=O)Oc3ccccc3)cc2)C1 (stereo not shown)
0.008 to 0.04 µM

// query EC50 value for entry CN(C)CCCOc1ccc(C2c3[nH]c4ccc(Cl)cc4c3CCN2C(=O)Oc2ccc(Cl)cc2)cc1 (stereo not shown)
0.04 to 0.2 µM

// query EC50 value for entry COCCN(CCOC)CC(O)COc1ccc(C2c3[nH]c4ccc(Cl)cc4c3CCN2C(=O)Oc2ccc(F)cc2)cc1 (stereo not shown)
< 0.008 µM

// query EC50 value for entry O=C(Oc1ccc(F)cc1)N1CCc2c([nH]c3ccc(Cl)cc23)C1c1ccc(OCCCN2CCSCC2)cc1 (stereo not shown)
0.04 to 0.2 µM

// query EC50 value for entry COc1ccc(C2c3[nH]c4ccc(Cl)cc4c3CCN2C(=O)Oc2ccc(Cl)cc2)cc1 (stereo not shown)
< 0.008 µM

// query EC50 value for entry Cc1ccc(OC(=O)N2CCc3c([nH]c4ccc(Cl)cc34)C2c2ccc(OCCCN(C)C)cc2)cc1 (stereo not shown)
0.04 to 0.2 µM

// query EC50 value for entry CN(C)CC(=O)Nc1ccc(C2c3[nH]c4ccc(Cl)cc4c3CCN2C(=O)Oc2ccc(Cl)cc2)cc1 (stereo not shown)
0.04 to 0.2 µM

// query EC50 value for entry O=C(Oc1ccc(Cl)cc1)N1CCc2c([nH]c3ccc(Cl)cc23)C1c1ccc(OCC(O)CN2CCCC2)cc1 (stereo not shown)
0.008 to 0.04 µM

// query EC50 value for entry O=C(Oc1ccc(F)cc1)N1CCc2c([nH]c3ccc(Cl)cc23)C1c1ccc(OCCCCN2CCOCC2)cc1 (stereo not shown)
< 0.008 µM

// query EC50 value for entry CN(C)CCN(C)CCCOc1ccc([C@H]2c3[nH]c4ccc(Cl)cc4c3CCN2C(=O)Oc2ccc(Cl)cc2)cc1
< 0.008 µM

// query EC50 value for entry CN1CCN(CC(O)COc2ccc(C3c4[nH]c5ccc(Cl)cc5c4CCN3C(=O)Oc3ccc(Cl)cc3)cc2)CC1 (stereo not shown)
0.008 to 0.04 µM

// query EC50 value for entry COCCN(CCOC)CC(O)COc1ccc(C2c3[nH]c4ccc(Cl)cc4c3CCN2C(=O)Oc2ccc(Cl)cc2)cc1 (stereo not shown)
< 0.008 µM

// query EC50 value for entry Cc1ccc(OC(=O)N2CCc3c([nH]c4ccc(Cl)cc34)C2c2ccc(OCC3CCCN(C)C3)cc2)cc1 (stereo not shown)
0.008 to 0.04 µM
